# Tested on: OVCAR-8 complex spheroid, growth inhibition
# Experiment summary: Anticancer human tumor OVCAR-8 cell line growth inhibition [Asc]; active means viability on the fitted dose curve at most 10% of control; inactive means the rest;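 further: spheroids exposed to agents for 7 days before readout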
# Condition summary: second compound 0.01 µM; first compound 3.16 µM
Respond only with the outcome that fits, drawn from active, inactive

Look over these answered cases.
C#Cc1c(F)ccc2cc(O)cc(-c3ncc4c(N5CC6CCC(C5)N6)nc(OCC56CCCN5CC(F)C6)nc4c3F)c12 (centres undefined) + CNC(C)C(=O)NC1CN(S(=O)(=O)c2cccc(S(=O)(=O)N3CCC4CCC(C(=O)NC(c5ccccc5)c5ccccc5)N4C(=O)C(NC(=O)C(C)NC)C3)c2)CCC2CCC(C(=O)NC(c3ccccc3)c3ccccc3)N2C1=O
inactive
O=C(c1cc(Cc2n[nH]c(=O)c3ccccc23)ccc1F)N1CCN(C(=O)C2CC2)CC1 + CNC(C)C(=O)NC1CN(S(=O)(=O)c2cccc(S(=O)(=O)N3CCC4CCC(C(=O)NC(c5ccccc5)c5ccccc5)N4C(=O)C(NC(=O)C(C)NC)C3)c2)CCC2CCC(C(=O)NC(c3ccccc3)c3ccccc3)N2C1=O
inactive
C=C(F)C(=O)N1CCN(c2nc(OCC3CCCN3C)nc3c2CCN(c2cccc4cccc(Cl)c24)C3)CC1CC#N (centres undefined) + CNC(C)C(=O)NC1CN(S(=O)(=O)c2cccc(S(=O)(=O)N3CCC4CCC(C(=O)NC(c5ccccc5)c5ccccc5)N4C(=O)C(NC(=O)C(C)NC)C3)c2)CCC2CCC(C(=O)NC(c3ccccc3)c3ccccc3)N2C1=O
active

# input for lookup
Input line: Recorded call for C=CC(=O)N1CCN(c2nc(=O)n(-c3c(C)ccnc3C(C)C)c3nc(-c4c(O)cccc4F)c(F)cc23)C(C)C1 (centres undefined) + CNC(C)C(=O)NC1CN(S(=O)(=O)c2cccc(S(=O)(=O)N3CCC4CCC(C(=O)NC(c5ccccc5)c5ccccc5)N4C(=O)C(NC(=O)C(C)NC)C3)c2)CCC2CCC(C(=O)NC(c3ccccc3)c3ccccc3)N2C1=O ?
Output line: inactive
